Would you mind telling me the reported pIC50 of each entry?
# TARGET_OR_TEST_SYSTEM: 11b-HSD2 (Homo sapiens)
# Sequence (P80365 whole entry): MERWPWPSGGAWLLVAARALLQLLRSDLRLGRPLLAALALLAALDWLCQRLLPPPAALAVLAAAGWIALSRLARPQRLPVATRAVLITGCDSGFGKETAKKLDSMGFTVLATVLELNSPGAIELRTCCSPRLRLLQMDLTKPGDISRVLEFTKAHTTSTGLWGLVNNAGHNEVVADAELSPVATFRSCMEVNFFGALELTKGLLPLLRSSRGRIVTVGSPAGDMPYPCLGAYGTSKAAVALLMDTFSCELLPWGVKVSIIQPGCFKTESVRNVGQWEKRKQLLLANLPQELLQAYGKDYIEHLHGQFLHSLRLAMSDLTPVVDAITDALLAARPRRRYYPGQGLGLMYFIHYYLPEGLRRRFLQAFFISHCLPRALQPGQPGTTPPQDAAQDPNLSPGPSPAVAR
# PROTOCOL: Cellular assay, 11b-HSD2 activity in HepG2 cells
# Assay type: cell-based
# Set-up: endogenous in cells; host or cells: HepG2 (ATCC HB-8065)
# EXPERIMENTAL_CONDITIONS: 4 hour pre-incubation, pIC50 scored 1-3, read-out: [C2] HSD2 cellular HepG2 Score
pIC50: −log10 of the molar value.

COMPOUND	RESULT
CC(C)(C(=O)NC1C2CC3CC(C2)CC1C3)c1ccc(OCC(=O)O)cc1 (centres unmarked) [Compound 72]	< 5.00
O=C(O)CCc1cccc2c1CCCC2C(=O)NC1C2CC3CC(C2)CC1C3 (centres unmarked) [Compound 240]	< 5.00

Kindly give each listed record's pIC50.
1. CC(C)(C(=O)NC1C2CC3CC(C2)CC1C3)c1cccnc1 (centres unmarked) [Compound 128]
2. O=C(NC1C2CC3CC(C2)CC1C3)C1CCOc2ccccc21 (centres unmarked) [Compound 167]
3. O=C(NCC12CC3CC(CC(C3)C1)C2)C1(c2ccccc2)CC1 [Compound 31]
4. O=C(NC1C2CC3CC(C2)CC1C3)C1Cc2ccccc21 (centres unmarked) [Compound 177]

Out:
1: < 5.00; 2: < 5.00; 3: < 5.00; 4: < 5.00

====

The following molecules have recorded IC50 on UniProt:P28845.
Sequence (P28845 whole entry): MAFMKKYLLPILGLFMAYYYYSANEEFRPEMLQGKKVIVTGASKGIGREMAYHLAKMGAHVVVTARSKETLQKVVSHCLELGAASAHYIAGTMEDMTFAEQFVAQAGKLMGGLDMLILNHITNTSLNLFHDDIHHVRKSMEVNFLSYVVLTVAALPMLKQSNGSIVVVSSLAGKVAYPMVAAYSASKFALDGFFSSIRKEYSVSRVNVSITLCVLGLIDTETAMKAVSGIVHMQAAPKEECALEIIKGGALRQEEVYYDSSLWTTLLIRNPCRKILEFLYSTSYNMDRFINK

Example entries and their recorded answers appear below.
MOLECULE	TARGET_OR_TEST_SYSTEM	IC50
O=C(NC1C2CC3CC(C2)CC1C3)C1CCCCc2ccccc21 (stereo not drawn) [Compound 169]	UniProt:P28845	< 1 µM
COc1ccc(OC)c(C(C)(C)C(=O)NC2C3CC4CC(C3)CC2C4)c1 (stereo not drawn) [Compound 93]	UniProt:P28845	< 1 µM
CC1CCC(C(=O)NC2C3CC4CC(C3)CC2C4)c2ccccc21 (stereo not drawn) [Compound 236]	UniProt:P28845	< 1 µM

Respectfully, I request IC50 for each entry included below.
1. CC(C)(C(=O)N[C@H]1[C@@H]2CC3C[C@H]1C[C@](O)(C3)C2)c1cccc(OCCN2CCOCC2)c1 [Compound 158]
2. CC(=CC(=O)NC1C2CC3CC(C2)CC1C3)c1ccccc1 (stereo not drawn) [Compound 153]
3. O=C(NC1C2CC3CC(C2)CC1C3)C1CCc2ccccc2C1 (stereo not drawn) [Compound 224]
4. O=C(NC1C2CC3CC(C2)CC1C3)C1=CCOc2ccccc21 (stereo not drawn) [Compound 162]
5. COc1ccc2c(c1)C(C(=O)NC1C3CC4CC(C3)CC1C4)CCC2 (stereo not drawn) [Compound 203]
6. COc1cccc(C(C)(C)C(=O)NC2CCC3CCCC2C3)c1 (stereo not drawn) [Compound 74]

Out:
["> 10 µM", "1 to 10 µM", "< 1 µM", "< 1 µM", "> 10 µM", "< 1 µM"]

For every listed record, write down its IC50.
1. CC(C)(C(=O)NC1C2CC3CC(C2)CC1C3)c1cccc(C(F)(F)F)c1 (stereo not drawn) [Compound 85]
2. CC(C)(C(=O)N[C@H]1[C@@H]2CC3C[C@H]1C[C@](F)(C3)C2)c1cccc(CCC(=O)O)c1 [Compound 217]

Out:
> 10 µM
1 to 10 µM

Please look at the items below and tell me IC50 for each one, in order.
1. COC12CC3CC(C1)C(NC(=O)C(C)(C)c1ccccc1)C(C3)C2 (stereo not drawn) [Compound 109]
2. CC(C)(C(=O)NC1C2CC3CC(C2)CC1C3)c1ccc(OCCN2CCOCC2)cc1 (stereo not drawn) [Compound 73]

Out:
["< 1 µM", "> 10 µM"]
